Biological target: recombinant human AMPK α2β2γ2 (Homo sapiens)
Sequence (Q9UGJ0 whole entry, one chain of several): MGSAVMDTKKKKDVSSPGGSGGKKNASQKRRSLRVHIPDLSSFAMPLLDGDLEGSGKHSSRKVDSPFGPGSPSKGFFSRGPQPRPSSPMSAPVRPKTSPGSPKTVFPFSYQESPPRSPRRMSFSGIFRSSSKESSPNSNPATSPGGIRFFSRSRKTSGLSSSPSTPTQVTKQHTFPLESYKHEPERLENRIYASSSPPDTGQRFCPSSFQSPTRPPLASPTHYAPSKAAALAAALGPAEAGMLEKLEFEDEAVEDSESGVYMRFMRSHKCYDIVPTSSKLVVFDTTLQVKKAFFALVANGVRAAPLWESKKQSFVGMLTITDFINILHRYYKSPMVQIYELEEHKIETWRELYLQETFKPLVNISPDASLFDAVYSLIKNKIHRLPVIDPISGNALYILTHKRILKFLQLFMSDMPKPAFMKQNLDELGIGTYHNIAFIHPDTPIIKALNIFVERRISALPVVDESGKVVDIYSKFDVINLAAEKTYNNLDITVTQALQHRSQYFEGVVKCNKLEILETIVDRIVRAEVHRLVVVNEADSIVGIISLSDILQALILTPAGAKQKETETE
Sequence (O43741 whole entry partner, one chain of several): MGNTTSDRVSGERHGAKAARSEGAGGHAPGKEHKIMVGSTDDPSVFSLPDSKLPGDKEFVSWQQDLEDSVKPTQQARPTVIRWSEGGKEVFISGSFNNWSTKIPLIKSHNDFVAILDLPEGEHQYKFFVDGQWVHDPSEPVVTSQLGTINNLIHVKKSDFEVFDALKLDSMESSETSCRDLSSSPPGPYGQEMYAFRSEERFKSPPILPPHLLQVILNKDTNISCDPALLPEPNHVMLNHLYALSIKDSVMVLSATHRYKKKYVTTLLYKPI
Test: In vitro AMP kinase assay (pACC ELISA), α2β2γ2
Conditions: read-out: EC50 allosteric activation hα2β2γ2
pEC50: −log10 of the molar value.
metric.name: pEC50

Give pEC50 for O=C(O)Cc1csc(Nc2ccc(C(F)(F)F)cc2)n1
~7.59

* * *

Molecular target: human recombinant AMPK α2β1γ1 (Homo sapiens, UniProt P54619)
Sequence (P54619 whole entry): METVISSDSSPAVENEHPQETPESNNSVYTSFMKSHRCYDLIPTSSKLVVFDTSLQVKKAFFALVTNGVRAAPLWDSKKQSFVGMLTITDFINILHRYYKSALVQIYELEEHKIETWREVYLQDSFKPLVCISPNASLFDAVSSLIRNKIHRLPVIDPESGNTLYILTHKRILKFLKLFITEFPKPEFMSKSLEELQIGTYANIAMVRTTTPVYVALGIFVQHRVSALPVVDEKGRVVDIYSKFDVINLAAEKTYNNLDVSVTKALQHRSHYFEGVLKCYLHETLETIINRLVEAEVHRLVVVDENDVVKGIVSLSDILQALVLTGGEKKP
Sequence (P54646 whole entry partner): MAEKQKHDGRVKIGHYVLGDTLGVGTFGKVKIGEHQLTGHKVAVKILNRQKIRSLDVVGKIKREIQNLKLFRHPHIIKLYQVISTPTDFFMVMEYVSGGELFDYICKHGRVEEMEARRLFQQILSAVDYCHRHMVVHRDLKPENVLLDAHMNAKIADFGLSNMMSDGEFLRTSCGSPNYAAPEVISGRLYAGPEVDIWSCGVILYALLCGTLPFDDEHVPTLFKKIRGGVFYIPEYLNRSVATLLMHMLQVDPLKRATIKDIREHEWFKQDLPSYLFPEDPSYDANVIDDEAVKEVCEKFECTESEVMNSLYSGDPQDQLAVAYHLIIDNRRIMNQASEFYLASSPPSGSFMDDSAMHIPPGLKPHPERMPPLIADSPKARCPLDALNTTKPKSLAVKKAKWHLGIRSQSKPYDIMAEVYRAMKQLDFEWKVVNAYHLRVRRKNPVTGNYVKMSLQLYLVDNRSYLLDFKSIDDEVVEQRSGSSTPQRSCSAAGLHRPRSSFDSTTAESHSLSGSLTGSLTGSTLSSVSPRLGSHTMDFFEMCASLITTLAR
Sequence (Q9Y478 whole entry partner): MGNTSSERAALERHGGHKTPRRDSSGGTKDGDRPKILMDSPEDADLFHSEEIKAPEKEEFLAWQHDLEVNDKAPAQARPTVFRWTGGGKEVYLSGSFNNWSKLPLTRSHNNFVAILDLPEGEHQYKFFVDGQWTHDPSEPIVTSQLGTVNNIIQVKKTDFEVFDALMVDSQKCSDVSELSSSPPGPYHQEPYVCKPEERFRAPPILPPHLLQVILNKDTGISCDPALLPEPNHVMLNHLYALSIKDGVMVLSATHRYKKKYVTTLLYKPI
Experiment: In vitro AMP kinase assay (pACC ELISA), α2β1γ1
Conditions: read-out: EC50 allosteric activation hα2β1γ1
pEC50: −log10 of the molar value.
metric.name: pEC50

Give pEC50 for O=C(O)Cc1csc(Nc2ccc(C(F)(F)F)cc2)n1
~7.64

* * *

Experiment: Pharmacokinetic study in male rats
Format: in vivo, rat
Conditions: rat, plasma; male SD rats, oral 30 mg/Kg; read-out: Cmax in plasma, molar
metric.name: Cmax

Give Cmax for O=C(O)Cc1csc(Nc2ccc(C(F)(F)F)cc2)n1
~360 µM

* * *

Experiment: Pharmacokinetic study in male rats
Format: in vivo, rat
Conditions: rat, plasma; male SD rats, oral 30 mg/Kg; read-out: Systemic exposure in plasma (AUC), molar
metric.name: AUC

Give AUC for O=C(O)Cc1csc(Nc2ccc(C(F)(F)F)cc2)n1
~3300 µM·h

* * *

Assay: Pharmacokinetic study in male rats
Assay type: in vivo, rat
Conditions: rat, plasma; male SD rats, oral 30 mg/Kg; read-out: Systemic exposure in plasma (AUC)
metric.name: AUC

Give AUC for O=C(O)Cc1csc(Nc2ccc(C(F)(F)F)cc2)n1
~978 µg·h/mL

Each recorded value in this set is attributed to paper PMC6018554.
